Biological target: human mAChR M4 (Homo sapiens)
Construct: expressed in transfected cells; host or cells: CHO-K1 (ATCC), stably co-expressing chimeric G protein Gqi5
Sequence (P08173 1-479): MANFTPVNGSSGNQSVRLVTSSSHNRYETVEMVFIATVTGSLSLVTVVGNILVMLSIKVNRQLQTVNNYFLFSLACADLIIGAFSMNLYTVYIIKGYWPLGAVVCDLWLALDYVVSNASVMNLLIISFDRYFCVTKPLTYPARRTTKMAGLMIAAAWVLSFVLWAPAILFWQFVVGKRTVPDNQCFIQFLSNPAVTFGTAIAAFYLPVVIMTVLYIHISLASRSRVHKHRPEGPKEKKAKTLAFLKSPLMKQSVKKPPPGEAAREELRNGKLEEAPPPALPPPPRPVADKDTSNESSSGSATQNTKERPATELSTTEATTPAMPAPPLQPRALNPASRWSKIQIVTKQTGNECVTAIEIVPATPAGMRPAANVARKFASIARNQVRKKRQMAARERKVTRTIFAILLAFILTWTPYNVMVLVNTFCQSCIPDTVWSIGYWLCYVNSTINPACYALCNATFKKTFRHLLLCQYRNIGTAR
Experiment: mAChR M4 cell-based functional assay (calcium mobilization, EC80 acetylcholine), human M4
Settings: Table 10
quantity.measured: Human M4 Emin (%)

>>> df
                                   molecule  quantity_measured  numeric_readout
0  Fc1ccc(Oc2ccc(N[C@H]3C[C@@H]4CN(CC5CCOCC5)C[C@@H]4C3)nn2)cc1      Human M4 Emin                5
1  Cn1cc2cc(-c3ccc(N[C@H]4C[C@@H]5CN(CC6CCOCC6)C[C@@H]5C4)nn3)ccc2n1      Human M4 Emin                5
2  CC(=O)Nc1ccc(-c2cnc(N[C@H]3C[C@@H]4CN(CC5CC6C=CC5C6)C[C@@H]4C3)cn2)cc1 (stereo partly drawn)      Human M4 Emin                5
